Values were extracted from ChEMBL document CHEMBL1961873.

The entries below come with measured inhibition values attached.
- experimental_system: Misshapen-like kinase 1 (Homo sapiens) (UniProt Q8N4C8);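 note: mean inhibition value reported, from GSK PKIS kinase profiling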
- Sequence (Q8N4C8 whole entry, looked up): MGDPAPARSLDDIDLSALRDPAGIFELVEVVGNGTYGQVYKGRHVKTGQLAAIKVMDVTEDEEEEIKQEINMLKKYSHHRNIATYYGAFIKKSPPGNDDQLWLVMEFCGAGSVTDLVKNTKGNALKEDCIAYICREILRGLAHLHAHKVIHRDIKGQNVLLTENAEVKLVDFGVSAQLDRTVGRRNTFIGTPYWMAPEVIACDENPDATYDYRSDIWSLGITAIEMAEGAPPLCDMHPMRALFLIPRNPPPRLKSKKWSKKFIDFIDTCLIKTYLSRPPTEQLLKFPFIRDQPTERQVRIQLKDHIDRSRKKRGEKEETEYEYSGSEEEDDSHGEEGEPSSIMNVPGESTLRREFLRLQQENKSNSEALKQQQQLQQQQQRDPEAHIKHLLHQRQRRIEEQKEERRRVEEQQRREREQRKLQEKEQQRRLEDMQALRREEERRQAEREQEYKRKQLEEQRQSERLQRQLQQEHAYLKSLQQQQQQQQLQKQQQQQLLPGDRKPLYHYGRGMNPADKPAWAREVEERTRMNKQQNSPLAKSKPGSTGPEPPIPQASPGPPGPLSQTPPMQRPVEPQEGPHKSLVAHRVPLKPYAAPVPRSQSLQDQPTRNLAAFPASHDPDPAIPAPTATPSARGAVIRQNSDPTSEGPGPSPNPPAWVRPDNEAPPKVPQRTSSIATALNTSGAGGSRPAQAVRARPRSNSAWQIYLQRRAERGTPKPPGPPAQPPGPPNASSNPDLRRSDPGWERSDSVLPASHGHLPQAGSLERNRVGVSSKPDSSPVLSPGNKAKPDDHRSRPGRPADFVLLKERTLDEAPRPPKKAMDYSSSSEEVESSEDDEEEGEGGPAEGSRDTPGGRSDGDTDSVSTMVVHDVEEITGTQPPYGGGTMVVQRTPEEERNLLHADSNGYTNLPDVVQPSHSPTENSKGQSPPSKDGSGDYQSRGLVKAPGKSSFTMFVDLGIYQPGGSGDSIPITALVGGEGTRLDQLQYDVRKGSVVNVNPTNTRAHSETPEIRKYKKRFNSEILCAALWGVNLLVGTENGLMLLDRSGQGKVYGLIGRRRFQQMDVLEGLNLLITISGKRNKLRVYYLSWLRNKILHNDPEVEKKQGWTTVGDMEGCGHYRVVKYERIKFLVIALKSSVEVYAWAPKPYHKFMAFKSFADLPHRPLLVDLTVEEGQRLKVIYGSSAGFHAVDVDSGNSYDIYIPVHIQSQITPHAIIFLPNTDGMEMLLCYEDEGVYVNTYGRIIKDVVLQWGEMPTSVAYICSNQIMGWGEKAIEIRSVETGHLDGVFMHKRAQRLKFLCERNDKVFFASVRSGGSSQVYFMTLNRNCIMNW
- assay_context: at 0.1 µM
State just the number; it will be interpreted in %.

Solved entries:
{"molecule": "CCCNc1cccc(-n2ncc3c(N/N=C/c4ccncc4)ncnc32)c1", "reading": 5.44}
{"molecule": "COc1cc(N2CCN(C(C)C)CC2)ccc1Nc1nc(Nc2cccc(F)c2C(=O)O)c2cc[nH]c2n1", "reading": 4.85}
{"molecule": "N#Cc1cccc(Nc2ncc(-c3ccccc3)o2)c1", "reading": 5.1}
{"molecule": "O=C(O[C@H]1CN[C@H](C#Cc2cc3ncnc(Nc4ccc5c(cnn5Cc5ccccc5)c4)c3s2)C1)N1CCOCC1", "reading": -0.37}
{"molecule": "COc1c(C(N)=O)cc(-c2ccc(Cl)cc2)cc1-c1ccc(S(N)(=O)=O)cc1", "reading": 6.03}

Given CCOc1ccc2c(-c3ccnc(Nc4cc(OC)cc(C(F)(F)F)c4)n3)cnn2n1 , respond with its inhibition.
2.19

Fill in reported inhibition for this entry: CC1=C(C(=O)Nc2ccc3[nH]ncc3c2)C(c2ccc(F)cc2)N=C(c2ccc(C(F)(F)F)nc2)N1 (stereo not given)
4.22

Quickly give me recorded inhibition for CC1=C(C(=O)Nc2ccc3[nH]nc(C)c3c2)C(c2ccc(C(F)(F)F)cc2)CC(=O)N1 (stereo not given)
4.68

Please report inhibition for the following molecule: O=C1Nc2ccccc2/C1=C1\CCc2cc(O)ccc21
17.6

Complete the entry with inhibition for Cn1c(-c2nonc2N)nc2cnccc21
5.83

---

- experimental_system: MAP/microtubule affinity-regulating kinase 4 (Homo sapiens) (UniProt Q96L34);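 note: reported value is a mean MARK4 inhibition at 1 µM, taken from the GSK PKIS screening set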
- Sequence (whole entry): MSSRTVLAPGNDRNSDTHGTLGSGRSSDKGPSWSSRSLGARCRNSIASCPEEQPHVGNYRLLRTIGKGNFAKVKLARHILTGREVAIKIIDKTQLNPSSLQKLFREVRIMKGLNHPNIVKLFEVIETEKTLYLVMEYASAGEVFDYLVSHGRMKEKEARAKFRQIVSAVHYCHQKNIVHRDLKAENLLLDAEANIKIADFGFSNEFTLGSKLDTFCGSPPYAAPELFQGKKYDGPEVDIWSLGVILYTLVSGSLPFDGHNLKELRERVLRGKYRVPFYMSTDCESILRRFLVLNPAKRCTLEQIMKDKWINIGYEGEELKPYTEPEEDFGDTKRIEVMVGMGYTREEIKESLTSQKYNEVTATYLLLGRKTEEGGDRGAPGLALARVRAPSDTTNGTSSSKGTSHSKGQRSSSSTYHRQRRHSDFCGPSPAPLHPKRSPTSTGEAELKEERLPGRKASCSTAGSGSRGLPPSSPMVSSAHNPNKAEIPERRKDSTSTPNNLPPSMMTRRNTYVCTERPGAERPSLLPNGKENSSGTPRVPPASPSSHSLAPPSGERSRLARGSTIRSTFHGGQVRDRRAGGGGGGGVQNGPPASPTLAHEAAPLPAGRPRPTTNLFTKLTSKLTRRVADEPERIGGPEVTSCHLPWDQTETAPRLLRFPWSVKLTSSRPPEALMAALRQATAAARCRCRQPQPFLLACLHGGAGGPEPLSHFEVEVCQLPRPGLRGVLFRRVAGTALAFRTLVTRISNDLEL
- assay_context: at 1 µM
The label depends only on inhibition: Condition met if it is at least 2%, Condition not met if it is smaller.

These solved cases illustrate the format of a correct answer.
{"given_smiles": "CS(=O)(=O)CCNCc1ccc(-c2ccc3ncnc(Nc4ccc(OCc5ccccc5)cc4)c3c2)o1", "label": "Condition not met"}
{"given_smiles": "CCOc1ccc2c(-c3ccnc(Nc4cc(OC)cc(C(F)(F)F)c4)n3)cnn2n1", "label": "Condition met"}
{"given_smiles": "Cc1cc(O)cc(C)c1/C=C/c1cncc(C(N)=O)c1", "label": "Condition not met"}
{"given_smiles": "N#Cc1ccc2c(-c3ccnc(NC4CC4)n3)c(-c3ccc(F)cc3)nn2c1", "label": "Condition not met"}
{"given_smiles": "COc1c(C(N)=O)cc(-c2ccc(Cl)cc2)cc1-c1ccc(S(N)(=O)=O)cc1", "label": "Condition not met"}

Item COc1cc(Nc2ncc(-c3ccccc3)o2)cc(OC)c1 with inhibition of 2% or above?
Condition met

Determine whether measured inhibition meets or exceeds 2% for O=C(O[C@H]1CN[C@H](C#Cc2cc3ncnc(Nc4ccc5c(ccn5Cc5cc(F)ccc5F)c4)c3s2)C1)N1CCOCC1
Condition not met

Does the reported inhibition for CCCNc1cccc(-n2ncc3c(N/N=C/c4ccncc4)ncnc32)c1 fall at or above the 2% mark?
Condition met

Assess whether reported inhibition for CCN1CCC(C(=O)Nc2n[nH]c3nnc(-c4cccc(F)c4F)cc23)CC1 sits at 2% or higher.
Condition met

Please check the record Cn1c(-c2nonc2N)nc2cnccc21 and state if its inhibition is at or above 2%.
Condition met

---

- experimental_system: Cyclin-dependent kinase 6 (Homo sapiens);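 note: mean percent inhibition of the kinase bound to its cyclin partner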
- assay_context: at 1 µM
value_type: inhibition (%)
# value in %; strip the unit string

{"given_smiles": "N#Cc1ccc2c(-c3ccnc(NC4CC4)n3)c(-c3ccc(F)cc3)nn2c1", "value_type": "inhibition", "reading": 2.32}
{"given_smiles": "CCS(=O)(=O)c1ccc(OC)c(Nc2ncc(-c3cccc(C(C)=O)c3)o2)c1", "value_type": "inhibition", "reading": 5.56}
{"given_smiles": "OCCCNc1nccc(-c2c(-c3ccc(F)cc3)nn3cc(C(F)(F)F)ccc23)n1", "value_type": "inhibition", "reading": 5.92}
{"given_smiles": "COc1c(C(N)=O)cc(-c2ccc(Cl)cc2)cc1-c1ccc(S(N)(=O)=O)cc1", "value_type": "inhibition", "reading": -0.36}
{"given_smiles": "NS(=O)(=O)c1ccc(N/N=C2\\C(=O)Nc3cccc(CCc4ccncc4)c32)cc1", "value_type": "inhibition", "reading": 56.2}
{"given_smiles": "O=C1Nc2ccccc2/C1=C1\\CCc2cc(O)ccc21", "value_type": "inhibition", "reading": 30.5}
{"given_smiles": "COc1ccc(Nc2ncc(-c3ccccc3)o2)cc1OC", "value_type": "inhibition", "reading": 23.4}
{"given_smiles": "c1cnn2ncc(-c3ccnc(NCCCN4CCOCC4)n3)c2c1", "value_type": "inhibition", "reading": 2.95}

Pending molecule:
Please report inhibition for the following molecule: CCS(=O)(=O)c1ccc(OC)c(Nc2ncc(-c3cccc(F)c3)o2)c1
1.82

---

- experimental_system: Serine/threonine-protein kinase Nek6 (Homo sapiens);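 note: values are the mean percent inhibition of NEK6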
- assay_context: at 0.1 µM
Below: a set of entries, each annotated with reported inhibition.
# value in %; strip the unit string

Reference set, count: 6
{"given_smiles": "O=C(O[C@H]1CN[C@H](C#Cc2cc3ncnc(Nc4ccc5c(ccn5Cc5cc(F)ccc5F)c4)c3s2)C1)N1CCOCC1", "experimental_system": "Serine/threonine-protein kinase Nek6 (Homo sapiens)", "inhibition [%]": 4.81}
{"given_smiles": "CS(=O)(=O)CCNCc1ccoc1-c1ccc2ncnc(Nc3ccc(OCc4ccccc4)cc3)c2c1", "experimental_system": "Serine/threonine-protein kinase Nek6 (Homo sapiens)", "inhibition [%]": 1.71}
{"given_smiles": "CS(=O)(=O)Nc1ccc(-c2ccc3c(NC(=O)C4CC4)n[nH]c3c2)cc1", "experimental_system": "Serine/threonine-protein kinase Nek6 (Homo sapiens)", "inhibition [%]": 1.17}
{"given_smiles": "CN1CCC(n2cnc(-c3ccc(F)cc3)c2-c2ccnc(NCCO)n2)CC1", "experimental_system": "Serine/threonine-protein kinase Nek6 (Homo sapiens)", "inhibition [%]": 3.54}
{"given_smiles": "N#Cc1ccc2c(-c3ccnc(NC4CC4)n3)c(-c3ccc(F)cc3)nn2c1", "experimental_system": "Serine/threonine-protein kinase Nek6 (Homo sapiens)", "inhibition [%]": 1.63}
{"given_smiles": "COc1cc(N2CCN(C(C)C)CC2)ccc1Nc1nc(Nc2cccc3ncccc23)c2cc[nH]c2n1", "experimental_system": "Serine/threonine-protein kinase Nek6 (Homo sapiens)", "inhibition [%]": -0.86}

// fetch inhibition given entry COc1cc(Nc2ncc(-c3ccccc3)o2)cc(OC)c1
3.13

Respond only with inhibition recorded for Cc1cc(O)cc(C)c1/C=C/c1cncc(C(N)=O)c1
3.18

Given the molecule O=C1Nc2ccccc2/C1=C1\CCc2cc(O)ccc21 , write its reported inhibition.
1.9

Provide inhibition value for the following molecule: FC(F)(F)CNc1nccc(-c2cnn3ncccc23)n1
0.83

---

- experimental_system: Glycogen synthase kinase-3 beta (Homo sapiens) (UniProt P49841);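 note: values are mean percent inhibition of GSK3B activity, from the GSK Published Kinase Inhibitor Set (PKIS) screening dataset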
- Sequence (P49841 whole entry, looked up): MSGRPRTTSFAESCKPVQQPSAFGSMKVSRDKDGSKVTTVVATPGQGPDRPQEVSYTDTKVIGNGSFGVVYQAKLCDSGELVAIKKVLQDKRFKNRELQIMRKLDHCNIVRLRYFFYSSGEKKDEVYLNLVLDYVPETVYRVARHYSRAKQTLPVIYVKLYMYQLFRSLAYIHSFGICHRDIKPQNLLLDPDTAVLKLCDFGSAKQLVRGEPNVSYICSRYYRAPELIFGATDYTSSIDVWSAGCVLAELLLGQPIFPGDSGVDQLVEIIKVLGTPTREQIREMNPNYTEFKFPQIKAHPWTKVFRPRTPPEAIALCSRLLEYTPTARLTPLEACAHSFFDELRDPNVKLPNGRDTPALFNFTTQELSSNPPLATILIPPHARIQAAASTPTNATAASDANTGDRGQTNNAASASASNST
- assay_context: at 0.1 µM
Label condition met when inhibition >= 2%; otherwise condition not met.

Record excerpt, results attached:
{"compound": "CCOc1ccc2c(-c3ccnc(Nc4cc(OC)cc(C(F)(F)F)c4)n3)cnn2n1", "label": "condition met"}
{"compound": "c1cnn2ncc(-c3ccnc(NCCCN4CCOCC4)n3)c2c1", "label": "condition not met"}
{"compound": "COc1c(C(N)=O)cc(-c2ccc(Cl)cc2)cc1-c1ccc(S(N)(=O)=O)cc1", "label": "condition not met"}
{"compound": "CC1=C(C(=O)Nc2ccc3[nH]nc(C)c3c2)C(c2ccc(C(F)(F)F)cc2)CC(=O)N1 (centres undefined)", "label": "condition met"}
{"compound": "CNC(=O)c1ncccc1Nc1nc(Nc2cc3c(cc2OC)CCCN3C(=O)CN(C)C)nc2[nH]ccc12", "label": "condition met"}

Now consider a different compound.
Hi, just wondering whether CS(=O)(=O)CCNCc1ccc(-c2ccc3ncnc(Nc4ccc(OCc5cccc(C(F)(F)F)c5)cc4)c3c2)o1 shows inhibition of 2% or higher.
condition not met
